Record form. Attribute: IC50. Fill in for each entry.
target: Polyadenylate-binding protein 1 (Homo sapiens); assay: PABP1 MLLE–PAM2 binding inhibitor potency, dose response, biochemical, fluorescence polarization, FITC-PAM2 peptide (AID 602259); format: functional; settings: read-out: IC50_Mean
Sequence (P11940 whole entry): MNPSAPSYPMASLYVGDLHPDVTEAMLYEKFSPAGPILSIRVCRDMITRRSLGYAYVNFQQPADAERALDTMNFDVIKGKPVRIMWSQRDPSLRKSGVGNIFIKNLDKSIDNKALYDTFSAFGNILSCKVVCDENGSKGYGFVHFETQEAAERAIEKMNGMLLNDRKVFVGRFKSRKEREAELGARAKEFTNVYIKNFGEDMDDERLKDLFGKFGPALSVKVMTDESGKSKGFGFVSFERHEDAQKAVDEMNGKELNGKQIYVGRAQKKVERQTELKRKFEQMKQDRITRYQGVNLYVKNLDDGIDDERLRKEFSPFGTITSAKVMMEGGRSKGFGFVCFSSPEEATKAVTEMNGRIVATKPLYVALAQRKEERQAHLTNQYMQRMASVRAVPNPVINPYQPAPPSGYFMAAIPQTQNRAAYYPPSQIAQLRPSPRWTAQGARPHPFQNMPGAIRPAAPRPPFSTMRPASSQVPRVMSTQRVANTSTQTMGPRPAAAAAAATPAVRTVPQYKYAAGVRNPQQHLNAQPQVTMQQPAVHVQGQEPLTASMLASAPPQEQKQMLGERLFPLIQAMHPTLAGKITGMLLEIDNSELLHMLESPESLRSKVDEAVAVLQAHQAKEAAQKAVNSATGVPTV
The source made the active and inactive calls.

Below are worked cases with known answers.
>>> result("Cc1csc(=O)n1CCC(=O)OCC(=O)NNC(=O)c1ccc(Cl)cc1")
"> 66 µM (inactive)"
>>> result("O=C(/C=C/c1ccco1)NC(=S)Nc1ccc(N2CCCC2)cc1")
"> 66 µM (inactive)"
>>> result("CCN1C(=O)/C(=C/c2ccc(OC)c(OC)c2)N=C1SCC(=O)NCc1ccco1")
"> 66 µM (inactive)"
>>> result("CCOC(=O)C(CC)Sc1nc2c(c(=O)[nH]c(=O)n2C)n1CCc1ccccc1 (stereo unspecified)")
"> 66 µM (inactive)"
>>> result("Cc1cc2cc(CNC(=O)c3ccc(S(=O)(=O)N4CCOCC4)cc3)ccc2n1C")
"49.6 µM (inactive)"
>>> result("CCOC(=O)CSC1=N/C(=C\\c2cc(OC)c(OC)c(OC)c2)C(=O)N1C")
"> 66 µM (inactive)"

Hi! Can you tell me IC50 for each of these compounds?
1. C1CC2CN(c3nc4nonc4nc3N3CCSCC3)CCN2C1 (stereo unspecified)
2. CCN1C(=O)/C(=C2\SC(=S)N(c3c(C)n(C)n(-c4ccccc4)c3=O)C2=O)c2ccccc21
3. Cc1ccc(/C=C/C(=O)Nc2nn[nH]n2)o1
4. Cc1ccc(S(=O)(=O)Nc2cc(C)c(O)c(Sc3nnc(C)[nH]3)c2)cc1
5. COc1ccc(S(=O)(=O)Nc2ccc(O)c3ccccc23)cc1

output:
> 66 µM (inactive)
> 66 µM (inactive)
> 66 µM (inactive)
> 66 µM (inactive)
> 66 µM (inactive)

----------
biological target: Corticotropin-releasing factor receptor 2/Corticotropin-releasing factor-binding protein (Homo sapiens, UniProt P24387+Q13324); test: Dose Response confirmation of uHTS hits for small molecule antagonists of the CRF-binding protein and CRF-R2 receptor complex.; format: functional; conditions: read-out: IC50_Mean
Sequence (Q13324 whole entry): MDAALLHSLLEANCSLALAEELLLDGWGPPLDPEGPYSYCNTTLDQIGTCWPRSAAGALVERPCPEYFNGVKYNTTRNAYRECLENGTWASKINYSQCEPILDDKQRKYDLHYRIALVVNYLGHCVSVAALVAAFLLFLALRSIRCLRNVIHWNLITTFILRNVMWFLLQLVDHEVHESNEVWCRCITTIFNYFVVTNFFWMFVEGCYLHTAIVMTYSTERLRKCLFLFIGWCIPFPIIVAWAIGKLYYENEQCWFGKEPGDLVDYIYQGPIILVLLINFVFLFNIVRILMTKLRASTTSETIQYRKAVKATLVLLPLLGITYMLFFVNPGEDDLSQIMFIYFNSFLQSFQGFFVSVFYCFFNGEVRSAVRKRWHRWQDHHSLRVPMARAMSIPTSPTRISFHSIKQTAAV
Sequence (P24387 whole entry): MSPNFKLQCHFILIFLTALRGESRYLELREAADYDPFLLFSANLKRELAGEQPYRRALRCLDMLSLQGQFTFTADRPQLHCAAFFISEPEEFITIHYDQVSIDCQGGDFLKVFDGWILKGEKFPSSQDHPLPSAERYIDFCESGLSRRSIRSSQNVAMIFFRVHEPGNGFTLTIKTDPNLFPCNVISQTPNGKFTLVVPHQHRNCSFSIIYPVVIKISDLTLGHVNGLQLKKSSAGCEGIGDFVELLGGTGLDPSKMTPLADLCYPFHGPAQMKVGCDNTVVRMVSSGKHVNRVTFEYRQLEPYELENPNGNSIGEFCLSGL
Activity calls are given as the source filed them.
Could you please pick one outcome from this set? 1 (yes) for active, 0 (no) for inactive

Solved cases (5 shown):
>>> classification("O=C(ON=C1CCN(c2ccc([N+](=O)[O-])cc2)CC1)c1ccccc1")
"1 (yes)"
>>> classification("Cc1nn(Cc2ccccc2Cl)c(C)c1NC(=O)c1nc2ncccn2n1")
"0 (no)"
>>> classification("CC(C)C(NC(=O)c1ccco1)C(=O)NC1CCCCCC1 (stereo unspecified)")
"0 (no)"
>>> classification("COc1ccc(OCCCC(=O)Nc2cccnc2)cc1")
"0 (no)"
>>> classification("Cc1nc2cc(C(=O)NCc3ccc4c(c3)OCO4)ccc2n1-c1ccc(Br)cc1")
"1 (yes)"

We next turn to a different molecule, shown below.
input: Called result for CCOc1ccccc1NC(=O)C1CCCN1S(=O)(=O)c1ccccc1C(F)(F)F (stereo unspecified)
output: 0 (no)

----------
biological target: Streptokinase A (Streptococcus pyogenes serotype M1, UniProt P10520); experiment: S. pyogenes streptokinase expression inhibitors, potency, dose response, plasminogen activation absorbance, OD405 (AID 1914); type: functional, Streptococcus pyogenes M1 GAS;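 also: secreted streptokinase activity via plasminogen activation per viability signal from cell pellet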
Sequence (P10520 whole entry): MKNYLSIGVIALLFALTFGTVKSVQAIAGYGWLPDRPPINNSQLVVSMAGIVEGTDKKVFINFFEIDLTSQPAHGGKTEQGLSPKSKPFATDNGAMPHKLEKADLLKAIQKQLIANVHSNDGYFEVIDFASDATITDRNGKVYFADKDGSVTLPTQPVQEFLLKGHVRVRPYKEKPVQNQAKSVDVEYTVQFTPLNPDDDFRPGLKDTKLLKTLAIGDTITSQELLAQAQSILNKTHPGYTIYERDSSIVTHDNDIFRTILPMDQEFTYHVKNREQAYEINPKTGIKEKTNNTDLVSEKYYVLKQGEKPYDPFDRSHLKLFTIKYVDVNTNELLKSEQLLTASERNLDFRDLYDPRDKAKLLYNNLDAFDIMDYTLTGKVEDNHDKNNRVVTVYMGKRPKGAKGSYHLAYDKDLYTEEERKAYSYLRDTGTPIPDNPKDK
Activity calls are given as the source filed them.
Record form. Attribute: EC50. Fill in for each entry.

Below are worked cases with known answers.
>>> result("Cc1cc(Oc2cnn(C(C)(C)C)c(=O)c2Cl)cc(C(C)C)c1")
"9.54 µM (active)"
>>> result("CCCc1ccc(Oc2c[nH]nc2-c2ccc(O)c(C)c2O)cc1")
"> 150 µM (not active)"
>>> result("O=C1c2ccccc2CC1(Cc1ccccc1)Cc1ccccc1")
"12.9 µM (active)"
>>> result("Cc1cccc(C)c1OC(=O)C(c1ccccc1)c1ccccc1")
"17 µM (active)"
>>> result("CCc1nnc(NC(=O)c2ccc(S(=O)(=O)N(C)c3ccccc3)cc2)o1")
"> 150 µM (not active)"

input: Please supply the value of reported EC50 for the item C/C(=N\Nc1nc2ccc(Cl)cc2o1)c1ccccc1
output: > 150 µM (not active)

----------
Record form. Attribute: EC50. Fill in for each entry.
target: Zinc finger protein mex-5 (Caenorhabditis elegans, UniProt Q9XUB2); experiment: MEX-5/TCR-2 RNA interaction inhibitors, dose response, biochemical, C. elegans, fluorescence polarization (AID 1960)
Sequence (Q9XUB2 whole entry): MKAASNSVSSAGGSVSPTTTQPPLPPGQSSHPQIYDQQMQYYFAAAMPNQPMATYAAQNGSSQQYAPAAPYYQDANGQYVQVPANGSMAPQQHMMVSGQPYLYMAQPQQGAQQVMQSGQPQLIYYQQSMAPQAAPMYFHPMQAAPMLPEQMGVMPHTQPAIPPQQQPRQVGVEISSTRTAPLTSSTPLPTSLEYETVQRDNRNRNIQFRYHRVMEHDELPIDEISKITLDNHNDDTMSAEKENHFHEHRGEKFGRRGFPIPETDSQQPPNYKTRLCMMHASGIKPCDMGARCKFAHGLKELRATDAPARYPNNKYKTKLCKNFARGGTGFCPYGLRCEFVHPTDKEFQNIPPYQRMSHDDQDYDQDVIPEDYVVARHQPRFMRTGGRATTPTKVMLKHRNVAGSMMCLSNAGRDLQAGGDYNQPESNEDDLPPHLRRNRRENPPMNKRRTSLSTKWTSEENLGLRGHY
The source made the active and inactive calls.

>>> result("CCSC1=N/C(=C\\c2ccccc2)C(=O)N1")
"> 300 µM (not active)"

Hi! Can you tell me EC50 for each of these molecules?
1. CCCC[n+]1ccn(C2=C([N-]S(=O)(=O)c3ccc(Cl)cc3)C(=O)c3ccccc3C2=O)c1
2. Cc1cc(-c2ccccc2)nc(N/N=C/c2ccc(O)cc2O)n1
3. COC(=O)c1[nH]c2cc(OC)c(OC)cc2c1/C=N/Nc1ccccc1
4. COc1ccc(/C=N/N=C2/CC(C)(C)Cc3nnc(O)cc32)cc1
5. S=C1NC2(CCS1)Oc1ccccc1C1CC(c3ccccc3)=NN12 (stereo unspecified)

output:
85.9 µM (inconclusive)
54 µM (active)
20.3 µM (inconclusive)
38.1 µM (active)
> 300 µM (not active)

----------
target: UniProt:Q9QUQ5; assay: mouse TRPC4 channel inhibitors, dose response, cell-based, HEK293 TRPC4/mu-opioid, Fluo-4 calcium (AID 434942); assay type: functional;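 also: potency of inhibitors blocking the TRPC4 calcium response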
Sequence (Q9QUQ5 whole entry): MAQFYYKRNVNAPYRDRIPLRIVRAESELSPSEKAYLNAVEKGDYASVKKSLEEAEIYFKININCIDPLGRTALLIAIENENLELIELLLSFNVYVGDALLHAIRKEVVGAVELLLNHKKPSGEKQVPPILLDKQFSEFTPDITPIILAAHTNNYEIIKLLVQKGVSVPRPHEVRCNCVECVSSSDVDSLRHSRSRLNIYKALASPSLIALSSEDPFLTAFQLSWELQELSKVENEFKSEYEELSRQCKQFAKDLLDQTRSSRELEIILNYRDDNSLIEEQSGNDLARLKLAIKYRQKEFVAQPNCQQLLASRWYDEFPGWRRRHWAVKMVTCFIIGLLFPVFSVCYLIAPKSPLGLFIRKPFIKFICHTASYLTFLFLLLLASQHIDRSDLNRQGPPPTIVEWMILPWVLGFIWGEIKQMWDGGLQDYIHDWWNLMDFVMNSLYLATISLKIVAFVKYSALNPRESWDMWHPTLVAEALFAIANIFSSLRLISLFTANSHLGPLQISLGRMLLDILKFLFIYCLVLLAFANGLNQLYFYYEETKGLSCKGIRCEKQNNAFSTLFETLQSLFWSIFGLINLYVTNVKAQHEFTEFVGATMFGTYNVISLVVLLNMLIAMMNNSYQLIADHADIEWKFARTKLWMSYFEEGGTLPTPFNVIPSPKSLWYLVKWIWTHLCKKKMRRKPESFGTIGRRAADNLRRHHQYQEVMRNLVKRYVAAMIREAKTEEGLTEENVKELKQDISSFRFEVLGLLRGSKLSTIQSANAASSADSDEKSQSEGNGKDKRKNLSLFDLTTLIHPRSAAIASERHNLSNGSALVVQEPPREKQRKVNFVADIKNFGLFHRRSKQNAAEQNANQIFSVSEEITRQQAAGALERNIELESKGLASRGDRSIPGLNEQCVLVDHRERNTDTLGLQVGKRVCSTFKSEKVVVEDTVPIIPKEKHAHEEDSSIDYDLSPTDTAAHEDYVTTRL
The source made the active and inactive calls.
Record form. Attribute: EC50. Fill in for each entry.

Below are worked cases with known answers.
>>> result("N=C(Cc1cccc2ccccc12)NOC(=O)c1cccs1")
"0.596 µM (active)"
>>> result("CCOC(=O)C1(CCOC)CCN(C(C)CCc2ccc(OC)cc2)CC1 (stereo not drawn)")
"4.22 µM (active)"
>>> result("CCCc1nc2ccccc2n1Cc1ccccc1OC")
"6.68 µM (active)"
>>> result("CN(C)C(CNC(=O)c1cccc(C(F)(F)F)c1)c1ccco1 (stereo not drawn)")
"0.376 µM (active)"
>>> result("Cc1ccc(/C=C/C(=O)c2ccc(O)cc2)cc1")
"3.35 µM (active)"

Hi! Can you tell me EC50 for each of these compounds?
1. Cc1ccc(N(C(=O)c2snc(C(N)=O)c2N)C(C(=O)NCC2CCCO2)c2ccc(C)o2)c(C)c1 (stereo not drawn)
2. O=[N+]([O-])c1cccc(N(CC(O)CN2CCCC2)S(=O)(=O)c2ccccc2)c1 (stereo not drawn)
3. CC(=O)N1CCN(c2ccccc2NC(=O)c2cccs2)CC1

output:
1.68 µM (active)
10.6 µM (active)
1.68 µM (active)

----------
biological target: Protein RecA (Mycobacterium tuberculosis); test: Fluorescence Cell-Free Homogeneous Dose Retest to Identify Inhibitors of RecA-Intein Splicing Activity. [Related pubchem assays (depositor defined):AID2097, AID2223, AID489010, AID492950]; format: functional
Active and inactive are the calls of the source.
Could you please pick one outcome from this set? active, inactive

Solved cases (6 shown):
>>> classification("O=C(O)c1ccc(N2C(=O)/C(=C/c3ccc(-c4ccc([N+](=O)[O-])cc4)o3)C=C2c2ccccc2)cc1")
"inactive"
>>> classification("Cc1[nH]n(-c2ccccc2)c(=O)c1C(c1ccc([N+](=O)[O-])cc1)c1c(C)[nH]n(-c2ccccc2)c1=O")
"active"
>>> classification("O=C(NCc1ccc2c(c1)OCO2)c1nc(S(=O)(=O)Cc2ccccc2)ncc1Cl")
"active"
>>> classification("COC(=O)N/N=C\\c1ccc(OC(=O)c2ccco2)cc1")
"active"
>>> classification("COc1ccc(N(C(=O)CCl)C(C(=O)NC2CCCCC2)c2cccnc2)cc1 (stereo not given)")
"active"
>>> classification("Cc1onc(-c2ccccc2)c1C(=O)n1nnc2ccccc21")
"active"

input: Called result for CC(C)(C)c1cc(NC(=O)CCl)n(-c2ccccc2)n1
output: active

input: Called result for COC(=O)Nc1nn(-c2ccc(OC)cc2)c(=O)c(C#N)c1C
output: active

input: Called result for c1ccc(Sc2ncnc3ccccc23)cc1
output: active

input: Called result for CC(C)CC(=O)/C(=C\c1ccc(Cl)cc1Cl)n1cncn1
output: active

input: Called result for C/C(CC(=O)NCc1ccco1)=N\NC(=O)c1ccc([N+](=O)[O-])cc1Cl
output: active

input: Called result for O=C(CCl)Nc1cn(-c2ccccc2)nc1-c1ccc(F)cc1
output: active

input: Called result for COc1ccc(S(=O)(=O)Nc2ccc(O)c3ccccc23)cc1
output: active

input: Called result for CC(=O)c1cccc2c1N=C(c1[nH]c3ccccc3c1O)C2=O
output: active

input: Called result for CCC1CCCCN1S(=O)(=O)c1ccc(NC(=O)c2nc(S(C)(=O)=O)ncc2Cl)cc1 (stereo not given)
output: active

----------
assay: Luminescence Cell-Based Dose Confirmation HTS to Identify Inhibitors of Platelet Dense Granule Release. [Related pubchem assays: 1663 (Primary HTS), 1678 (Summary of Project)]; assay type: functional
Active and inactive are the calls of the source.
Record form. Attribute: EC50. Fill in for each entry.

Below are worked cases with known answers.
>>> result("COc1cccc(-c2nc(-c3ccc(C(=O)O)cc3)no2)c1")
"4.03 µM (active)"
>>> result("CCNc1nc(Oc2ccc(=O)n(-c3ccccc3)n2)nc(N(C)C)n1")
"> 112 µM (not active)"
>>> result("Cn1cc(SCC(=O)Nc2nc3ccccc3s2)c2ccccc21")
"> 112 µM (not active)"
>>> result("Cc1cccc(OCc2nnc(SCC(=O)Nc3ncc(C)s3)o2)c1")
"> 112 µM (not active)"

input: Please supply the value of reported EC50 for the item CCCCn1c(CCC(=O)O)ccc1-c1cccs1
output: > 112 µM (not active)
